Reported Endpoint: melting point

Below, 5 compounds whose answers are already recorded.
# Record Smiles, melting point
data = [
    ("CNC(=O)c1cc(Oc2ccc(NC(=O)c3ccc(C(=O)Nc4cc(-n5cnc(C)c5)cc(C(F)(F)F)c4)cc3)cc2)ccn1", "299 to 300 °C"),
    ("Cc1cn(-c2cc(NC(=O)c3ccc(C(=O)Nc4cc(-n5cnc(C)c5)cc(C(F)(F)F)c4)cc3)cc(C(F)(F)F)c2)cn1", "295 to 296 °C"),
    ("Cc1cn(-c2cc(NC(=O)c3cccc(C(=O)N4CCN(C(=O)c5cccc(F)c5)CC4)c3)cc(C(F)(F)F)c2)cn1", "130 to 135 °C"),
    ("Cc1cn(-c2cc(NC(=O)c3cccc(C(=O)Nc4cc([N+](=O)[O-])ccc4C)c3)cc(C(F)(F)F)c2)cn1", "290 to 292 °C"),
    ("Cc1cn(-c2cc(NC(=O)c3ccc(C(=O)Nc4cc([N+](=O)[O-])ccc4C)cc3)cc(C(F)(F)F)c2)cn1", "269 to 270 °C"),
]

Now turn to the next compound.
"Cc1cn(-c2cc(NC(=O)c3cccc(C(=O)N4CCN(C(=O)c5ccccc5F)CC4)c3)cc(C(F)(F)F)c2)cn1" has a reported melting point of 135 to 138 °C
